LC50 by entry:
System: Mexican bean beetle (BB)
Experiment: Bean beetle test, sprayed bean leaves infested with third instar larvae, percent killed after 48 hours
Format: in vivo
Details: Epilachna varivestis, lethal concentration at which 50% of the pests are killed
Give the number; µg/mL is assumed, so skip it.

Here is how some compounds turned out for LC50.
q: Note LC50 for the compound shown: CCCSP(=O)(OCC)Oc1ccc(S(=O)(=O)Oc2ccccc2)cc1 (centres unmarked)
a: 75

q: Note LC50 for the compound shown: CCCSP(=S)(OCC)Oc1ccc(S(=O)(=O)Oc2ccccc2)cc1 (centres unmarked)
a: 150

q: Note LC50 for the compound shown: CCOP(=O)(Oc1ccc(S(=O)(=O)Oc2ccccc2)cc1)SC(C)CC (centres unmarked)
a: 15

***
q: Note LC50 for the compound shown: CCOP(=O)(Oc1ccc(S(=O)(=O)Oc2ccccc2)cc1)SCC(C)C (centres unmarked)
a: 26

q: Note LC50 for the compound shown: CCCSP(=O)(OCC)Oc1ccc(S(=O)(=O)Oc2ccc(C)cc2)cc1 (centres unmarked)
a: 150

q: Note LC50 for the compound shown: CCCSP(=O)(OCC)Oc1ccc(S(=O)(=O)Oc2ccc([N+](=O)[O-])cc2)cc1 (centres unmarked)
a: 75

q: Note LC50 for the compound shown: CCCSP(=O)(OCC)Oc1ccc(S(=O)(=O)Oc2ccc(C#N)cc2)cc1 (centres unmarked)
a: 49

q: Note LC50 for the compound shown: CCCSP(=O)(OCC)Oc1ccc(S(=O)(=O)Oc2ccc(Cl)cc2)cc1 (centres unmarked)
a: 75

q: Note LC50 for the compound shown: CCCSP(=O)(OCC)Oc1ccc(S(=O)(=O)Oc2ccc(SC)cc2)cc1 (centres unmarked)
a: 162

q: Note LC50 for the compound shown: CCCSP(=O)(OC)Oc1ccc(S(=O)(=O)Oc2ccc([N+](=O)[O-])cc2)cc1 (centres unmarked)
a: 54

q: Note LC50 for the compound shown: CCCCSP(=O)(OCC)Oc1ccc(S(=O)(=O)Oc2ccccc2)cc1 (centres unmarked)
a: 27

###

System: Southern armyworm (AW)
Assay: Armyworm test, sprayed bean leaves infested with third instar larvae, percent killed after 48 hours
Assay type: in vivo
Details: Spodoptera eridania, lethal concentration at which 50% of the pests are killed
LC50 under 40 µg/mL gets rule met, anything at or over 40 µg/mL gets rule not met.

Example results:
q: API: query returns whether the compound falls strictly under 40 µg/mL in LC50. Query: CCOP(=O)(Oc1ccc(S(=O)(=O)Oc2ccccc2)cc1)SCC(C)C (centres unmarked) [XI]
a: rule not met

q: API: query returns whether the compound falls strictly under 40 µg/mL in LC50. Query: CCCSP(=O)(OCC)Oc1ccc(S(=O)(=O)Oc2ccc([N+](=O)[O-])cc2)cc1 (centres unmarked) [III]
a: rule not met

q: API: query returns whether the compound falls strictly under 40 µg/mL in LC50. Query: CCCSP(=O)(OCC)Oc1ccc(S(=O)(=O)Oc2ccc(Cl)cc2)cc1 (centres unmarked) [IV]
a: rule not met

q: API: query returns whether the compound falls strictly under 40 µg/mL in LC50. Query: CCCSP(=O)(OC)Oc1ccc(S(=O)(=O)Oc2ccc([N+](=O)[O-])cc2)cc1 (centres unmarked) [XII]
a: rule not met

q: API: query returns whether the compound falls strictly under 40 µg/mL in LC50. Query: CCCSP(=O)(OCC)Oc1ccc(S(=O)(=O)Oc2ccccc2)cc1 (centres unmarked) [Example II]
a: rule met

q: API: query returns whether the compound falls strictly under 40 µg/mL in LC50. Query: CCOP(=O)(Oc1ccc(S(=O)(=O)Oc2ccccc2)cc1)SC(C)CC (centres unmarked) [IX]
a: rule not met

***
q: API: query returns whether the compound falls strictly under 40 µg/mL in LC50. Query: CCCSP(=O)(OCC)Oc1ccc(S(=O)(=O)Oc2ccc(SC)cc2)cc1 (centres unmarked) [VII]
a: rule met

q: API: query returns whether the compound falls strictly under 40 µg/mL in LC50. Query: CCCSP(=S)(OCC)Oc1ccc(S(=O)(=O)Oc2ccccc2)cc1 (centres unmarked) [XIII]
a: rule not met

q: API: query returns whether the compound falls strictly under 40 µg/mL in LC50. Query: CCCSP(=O)(OCC)Oc1ccc(S(=O)(=O)Oc2ccc(C)cc2)cc1 (centres unmarked) [VIII]
a: rule not met
